target: AgAbp1; test: SPOT peptide array binding signal intensity (averaged, normalized) (arbitrary units (background-subtracted, floor 0; scale differs between SH3 domains)); higher = stronger binding of the SH3 domain to the peptide
Please note: True applies when SPOT peptide array binding signal intensity is 200 or greater, and False applies otherwise.

>>> label_value("EVTPKVPERPSRRKT")
"True"
>>> label_value("IHTRRPSSTSQYLIR")
"True"
>>> label_value("KIRRSSLMIPNPQQF")
"False"
>>> label_value("NIKVLLNPKLGKPVK")
"False"
>>> label_value("AHFQPQRTAPKPPIS")
"False"
>>> label_value("ATKSASPTLPTRRSR")
"True"
>>> label_value("KTITLEVESSDTIDN")
"False"

Sourced from the supplement of paper PMC4466140
